target or test system: furin, P09958;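 note: purified furin at 1:10 enzyme:substrate in 50 mM HEPES pH 7.5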
Sequence (P09958 whole entry): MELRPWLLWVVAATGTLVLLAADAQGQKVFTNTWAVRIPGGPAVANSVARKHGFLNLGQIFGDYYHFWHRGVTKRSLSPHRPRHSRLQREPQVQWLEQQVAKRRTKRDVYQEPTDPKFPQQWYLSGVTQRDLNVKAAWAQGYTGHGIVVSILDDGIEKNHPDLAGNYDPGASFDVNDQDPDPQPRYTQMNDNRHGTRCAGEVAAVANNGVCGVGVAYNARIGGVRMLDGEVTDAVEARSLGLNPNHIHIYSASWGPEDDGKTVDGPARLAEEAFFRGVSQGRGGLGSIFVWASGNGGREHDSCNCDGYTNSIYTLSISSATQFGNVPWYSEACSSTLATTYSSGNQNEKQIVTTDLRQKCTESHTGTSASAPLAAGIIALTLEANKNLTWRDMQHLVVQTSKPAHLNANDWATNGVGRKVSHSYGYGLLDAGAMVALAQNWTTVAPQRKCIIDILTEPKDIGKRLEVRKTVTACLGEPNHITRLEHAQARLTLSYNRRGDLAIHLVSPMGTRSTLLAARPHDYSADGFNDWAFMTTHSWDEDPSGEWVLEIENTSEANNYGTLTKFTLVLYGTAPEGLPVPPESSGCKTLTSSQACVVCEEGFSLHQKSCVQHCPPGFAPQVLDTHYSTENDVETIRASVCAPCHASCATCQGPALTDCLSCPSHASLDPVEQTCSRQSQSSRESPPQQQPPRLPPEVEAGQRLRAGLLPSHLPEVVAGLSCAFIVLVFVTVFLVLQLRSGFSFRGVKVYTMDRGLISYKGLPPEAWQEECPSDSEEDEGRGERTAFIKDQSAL
test: furin cleavage Z-score vs untreated control; higher = more cleavage, active = 3.5 or more, inactive = 1 or less, 8 variable residues between constant flanks
assay setup: 7.5 min
Some of the results follow. No count for the full screen is at hand.
Overview of recorded furin cleavage Z-score for various sequences

{"sequence text": "CAINFRDKRSAGNASASA [FS-667]", "furin cleavage Z-score": 10.5}
{"sequence text": "CAEMVVCCSMAGNASASA [HC2126]", "furin cleavage Z-score": -1.21}
{"sequence text": "CAVVCCSMSMAGNASASA [HC2086]", "furin cleavage Z-score": 0.14}
{"sequence text": "CATEKRKKRSAGNASASA [FS-879]", "furin cleavage Z-score": 10.8}
{"sequence text": "CAGVEHRLEAAGNASASA [HC478]", "furin cleavage Z-score": -0.376}
{"sequence text": "CAMEECSNHLAGNASASA [HC1741]", "furin cleavage Z-score": -0.217}
{"sequence text": "CALRDIWDWIAGNASASA [HC1149]", "furin cleavage Z-score": -0.31}
{"sequence text": "CAGCIITSLTAGNASASA [HC681]", "furin cleavage Z-score": -0.591}
{"sequence text": "CASCLTVPASAGNASASA [HC252]", "furin cleavage Z-score": -0.0568}
{"sequence text": "CATTPCSGTWAGNASASA [HC1918]", "furin cleavage Z-score": 0.438}
{"sequence text": "CAQESQKKRSAGNASASA [FS-1474]", "furin cleavage Z-score": -0.591}
{"sequence text": "CAGYRRCRASAGNASASA [HC1508]", "furin cleavage Z-score": 0.58}
{"sequence text": "CAVRCCSMSYAGNASASA [HC2013]", "furin cleavage Z-score": 0.204}
{"sequence text": "CATPLPAPNYAGNASASA [HC1196]", "furin cleavage Z-score": -2.54}
{"sequence text": "CAWLQYFLTRAGNASASA [HC583]", "furin cleavage Z-score": -0.459}
